Taken from patent US10689354B2.

molecular target: androgen receptor (AR-LBD) (Rattus norvegicus, UniProt P15207); construct: 5 μL of 2×AR-LBD/Fluoromone AL Red Complex contained in the kit; purchased Invitrogen; test: Evaluation of androgen receptor affinity (PolarScreen Androgen Receptor Competitor Assay Kit, Red; fluorescence polarization); settings: 22° C. for 5 hours, relative to binding rate of 1 μM DHT, read-out: AR affinity (pEC50) (converted)
MEASUREMENT_KIND: EC50

| CHEMICAL_SMILES | ASSAYED_TARGET | EC50 |
| --- | --- | --- |
| Cc1noc(C)c1CCN(Cc1ccccc1)c1nc(C(=O)NS(C)(=O)=O)c(C)s1 | androgen receptor (AR-LBD) (Rattus norvegicus, UniProt P15207) | > 2000 nM |
| Cc1sc(N(C[C@H]2CC[C@@H](O)CC2)c2ccc(C#N)cc2)nc1C(=O)NS(C)(=O)=O | androgen receptor (AR-LBD) (Rattus norvegicus, UniProt P15207) | > 2000 nM |

Fill blank: measured EC50 of the molecule Cc1sc(N(Cc2ccccc2)c2cccc3cccnc23)nc1C(=O)NS(C)(=O)=O is ____. > 2000 nM

* * *

Target: androgen receptor (AR-LBD) (Rattus norvegicus, UniProt P15207)
Construct: 5 μL of 2×AR-LBD/Fluoromone AL Red Complex contained in the kit; purchased Invitrogen
Sequence (P15207 651-882 limits assumed): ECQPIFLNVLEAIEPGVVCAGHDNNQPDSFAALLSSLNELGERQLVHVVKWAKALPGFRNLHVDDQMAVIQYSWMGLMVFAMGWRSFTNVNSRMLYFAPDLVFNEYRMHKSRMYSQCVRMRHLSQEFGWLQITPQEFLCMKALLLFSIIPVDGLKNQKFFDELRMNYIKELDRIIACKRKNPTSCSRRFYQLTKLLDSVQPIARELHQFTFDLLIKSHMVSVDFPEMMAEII
Assay: Evaluation of androgen receptor affinity (PolarScreen Androgen Receptor Competitor Assay Kit, Red; fluorescence polarization)
Settings: 22° C. for 5 hours, relative to binding rate of 1 μM DHT, read-out: AR affinity (pEC50) (converted)
With a cut-off of 40 nM, any EC50 strictly below it is called criterion met; any EC50 meeting it or above is called criterion not met.

Answered examples (3):
| COMPOUND | LABEL_VALUE |
| --- | --- |
| COCCCS(=O)(=O)NC(=O)c1nc(N(Cc2ccc(Br)cn2)c2ccc(C#N)cc2)sc1C [Example 188] | criterion not met |
| CS(=O)(=O)NC(=O)c1nc(N(Cc2ccccc2)c2ccc(C#N)cc2)sc1Cl [Compound 657] | criterion met |
| COCCCS(=O)(=O)NC(=O)c1nc(N(Cc2ccc(Cl)c(Cl)c2)c2ccc(C#N)cc2)sc1C [Example 190] | criterion met |

Is EC50 of Cc1sc(N(Cc2ccccc2C(F)F)c2ccc(C#N)cc2)nc1C(=O)NS(C)(=O)=O [Compound 93] strictly below 40 nM? criterion not met

Same question for Cc1sc(N(Cc2ccccc2)c2ccc(C#N)cc2)nc1C(=O)NS(=O)(=O)C1CC1 [Compound 363] please. criterion not met

And then Cc1sc(N(Cc2ccc(Cl)c(F)c2)c2ccc(C#N)cc2)nc1C(=O)NS(C)(=O)=O [Compound 116] , what is it? criterion met

And for COCCCS(=O)(=O)NC(=O)c1nc(N(Cc2cnc(C(F)(F)F)c(OC)c2)c2ccc(C#N)cc2)sc1C [Compound 532] ? criterion not met
